B1: KCNK9 (parent)
chain: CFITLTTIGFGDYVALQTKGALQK

Variants of: B1
PROCEDURE_SUMMARY: protein stability index of a GFP-peptide fusion (GPS, HEK-293T) (PSI 1-6); higher = more stable;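 note: lentivirally expressed fusions sorted by FACS into six bins by GFP to DsRed ratio, PSI derived from sequencing read proportions per bin multiplied by bin number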
MEASUREMENT_PARAMETERS: c terminus: a fixed tail appended
READOUT_NAME: protein stability index
One number for each entry.

Would you please look over these solved cases?
## Input Hello, please tell me recorded protein stability index for this one: `L5W`
## Output 2.72

## Input Hello, please tell me recorded protein stability index for this one: `Q23K`
## Output 2.96

## Input Hello, please tell me recorded protein stability index for this one: `T6G`
## Output 1.69

## Input Hello, please tell me recorded protein stability index for this one: `A15I`
## Output 3.38

## Input Hello, please tell me recorded protein stability index for this one: `T4V`
## Output 2.25

## Input Hello, please tell me recorded protein stability index for this one: `L22A`
## Output 3.37

## Input Hello, please tell me recorded protein stability index for this one: `G20H`
## Output 2.6

## Input Hello, please tell me recorded protein stability index for this one: `L5Y`
## Output 3.03

## Input Hello, please tell me recorded protein stability index for this one: `A15H`
## Output 3.04

## Input Hello, please tell me recorded protein stability index for this one: `L22V`
## Output 2.62

Give me protein stability index for each of these variants, listed below.
1. G20S
2. G11M
3. F2M
4. G20T

## Output
3.74
1.85
1.43
5.14

Give me protein stability index for each of these variants, listed below.
1. I3L
2. K19D

## Output
1: 2.05; 2: 3.22
